# reported IC50; entries follow
assay target: full length N-terminally FLAG-tagged PARP1 (Homo sapiens)
Sequence (P09874 whole entry): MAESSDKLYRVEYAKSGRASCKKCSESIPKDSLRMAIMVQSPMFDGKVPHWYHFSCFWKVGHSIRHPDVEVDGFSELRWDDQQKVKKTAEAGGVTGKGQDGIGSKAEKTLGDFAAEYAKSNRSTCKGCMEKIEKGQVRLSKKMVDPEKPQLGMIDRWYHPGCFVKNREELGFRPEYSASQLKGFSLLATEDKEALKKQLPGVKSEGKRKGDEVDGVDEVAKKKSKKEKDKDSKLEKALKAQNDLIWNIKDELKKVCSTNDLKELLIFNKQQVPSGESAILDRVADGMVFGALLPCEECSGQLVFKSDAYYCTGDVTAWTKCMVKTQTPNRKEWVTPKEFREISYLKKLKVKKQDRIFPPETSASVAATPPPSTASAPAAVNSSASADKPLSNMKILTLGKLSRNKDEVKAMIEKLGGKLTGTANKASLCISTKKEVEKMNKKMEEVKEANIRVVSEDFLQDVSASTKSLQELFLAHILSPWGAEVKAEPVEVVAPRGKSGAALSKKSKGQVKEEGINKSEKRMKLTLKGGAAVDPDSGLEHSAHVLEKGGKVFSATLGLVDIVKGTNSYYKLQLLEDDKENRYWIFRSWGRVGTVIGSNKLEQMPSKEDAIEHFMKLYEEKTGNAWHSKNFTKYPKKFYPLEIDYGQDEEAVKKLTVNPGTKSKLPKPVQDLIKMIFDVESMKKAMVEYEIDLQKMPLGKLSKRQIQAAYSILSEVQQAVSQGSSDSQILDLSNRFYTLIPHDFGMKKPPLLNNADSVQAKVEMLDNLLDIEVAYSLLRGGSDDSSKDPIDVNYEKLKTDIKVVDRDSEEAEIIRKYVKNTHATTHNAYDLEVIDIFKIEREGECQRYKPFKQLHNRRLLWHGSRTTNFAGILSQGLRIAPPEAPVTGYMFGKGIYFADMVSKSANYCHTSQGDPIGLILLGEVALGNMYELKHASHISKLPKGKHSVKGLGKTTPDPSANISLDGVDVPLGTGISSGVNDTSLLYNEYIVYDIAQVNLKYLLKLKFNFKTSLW
assay remarks: PARP1 biochemical DELFIA assay (auto-PARylation)
Design: recombinant full length human N-terminally FLAG-tagged PARP1
condition description: binned IC50, PARP1 biochemical DELFIA assay

// below: answered compounds
compound	recorded measurement
CNC(=O)c1ccc(N2CCC(N3CCC(c4nc5ccc(F)cc5c(=O)[nH]4)C3)CC2)cn1 (single isomer, unassigned) [Compound 64a]	< 10 nM
CNC(=O)c1ccc(N2CCC(N3CCC(c4cc5cccc(F)c5c(=O)[nH]4)C3)CC2)c(F)n1 (single isomer, unassigned) [Compound 184a]	< 10 nM
CNC(=O)c1ccc(N2CCC(N3CCCC(c4nc5ccccc5c(=O)[nH]4)C3)CC2)cn1 (single isomer, unassigned) [Compound 6a]	< 10 nM

Quote IC50 reported for `CNC(=O)c1ccc(N2CCC(n3cc(-c4nc5ccccc5c(=O)[nH]4)cn3)CC2)cn1` please.
10 to 100 nM

Look up and report measured IC50 for this entry: CNC(=O)c1ccc(N2CCC(N3CCC(c4nc5[nH]nc(C(F)(F)F)c5c(=O)[nH]4)C3)CC2)cn1 (single isomer, unassigned) [Compound 162a]
10 to 100 nM

// fetch IC50 given entry CNC(=O)c1ccc(N2CCC(N3CCC(c4ccc(Cl)c(=O)[nH]4)C3)CC2)cn1 (single isomer, unassigned) [Compound 201a]
100 to 1000 nM

Quote IC50 reported for `CNC(=O)c1ccc(N2CCC(n3ccc(-c4nc5ccccc5c(=O)[nH]4)c3)CC2)cn1` please.
100 to 1000 nM

###

assay target: UniProtKB P09874
assay remarks: PARP1 biochemical DELFIA assay (auto-PARylation)
Set-up: recombinant full length human N-terminally FLAG-tagged PARP1
condition description: binned IC50, PARP1 biochemical DELFIA assay
# IC50 listing for each entry below

Here are 10 compounds together with their reported answers.
compound	IC50
CCc1ccc(C2CCN(C3CCN(c4ccc(C(=O)NC)nc4F)CC3)C2)[nH]c1=O (single isomer, unassigned) [Compound 151b]	< 0.01 µM
CNC(=O)c1ccc(N2CCC(N3CCC(c4nc5onc(C(F)(F)F)c5c(=O)[nH]4)C3)CC2)cn1 (single isomer, unassigned) [Compound 176a]	0.1 to 1 µM
CNC(=O)c1ccc(N2CCC(N3CCC(c4nc5ccccc5c(=O)[nH]4)C3)CC2)cn1 (single isomer, unassigned) [Compound 10a]	0.01 to 0.1 µM
CNC(=O)c1ccc(N2CCC(CN3CCC(c4nc5ccccc5c(=O)[nH]4)CC3)CC2)cn1 [Compound 8]	< 0.01 µM
CNC(=O)c1ccc(N2CCC(N3CCCC(c4nc5c(F)cccc5c(=O)[nH]4)C3)CC2)cn1 (single isomer, unassigned) [Compound 114b]	0.1 to 1 µM
CNC(=O)c1ccc(N2CCC(N3CCC(c4nc5c(F)ccc(F)c5c(=O)[nH]4)C3)CC2)cn1 (single isomer, unassigned) [Compound 182a]	0.01 to 0.1 µM
CNC(=O)c1ccc(N2CCC(N3CCC(c4nc(C)cc(=O)[nH]4)C3)CC2)cn1 (single isomer, unassigned) [Compound 97a]	> 10 µM
CNC(=O)c1ccc(N2CCC(N3CCC(c4cc5c(C(F)(F)F)cccc5c(=O)[nH]4)C3)CC2)cn1 (single isomer, unassigned) [Compound 167a]	0.01 to 0.1 µM
CNC(=O)c1ccc(OCCCN2CCC(c3nc4ccccc4c(=O)[nH]3)CC2)cn1 [Compound 2]	< 0.01 µM
CNC(=O)c1ccc(N2CCC(N3CCOC(c4nc5ccccc5c(=O)[nH]4)C3)CC2)cn1 (single isomer, unassigned) [Compound 58b]	0.01 to 0.1 µM

For the compound CNC(=O)c1ccc(N2CCC(N3CCC(c4cc5nccc(N)c5c(=O)[nH]4)C3)CC2)cn1 (racemic) [Compound 200rac] , give its reported IC50.
0.01 to 0.1 µM

Please report the measured IC50 for O=c1[nH]c(C2CCN(C3CCN(c4ccc(Cl)cc4)CC3)C2)nc2ccccc12 (single isomer, unassigned) [Compound 43a]
0.1 to 1 µM

Give the value of IC50 reported for the following: CNC(=O)c1ccc(N2CCC(N3CCCC(c4ncc(C(F)(F)F)c(=O)[nH]4)C3)CC2)cn1 (single isomer, unassigned) [Compound 73b]
0.01 to 0.1 µM

Identify measured IC50 corresponding to CCc1ccc(C2CCN(C3CCN(c4ccc(C(N)=O)nc4)CC3)C2)[nH]c1=O (racemic) [Compound 166rac]
< 0.01 µM

Answer with the recorded IC50 of N#Cc1ccc(N2CCC(N3CCC(c4nc5ccccc5c(=O)[nH]4)C3)CC2)nc1 (single isomer, unassigned) [Compound 55b] only.
0.01 to 0.1 µM

Supply reported IC50 belonging to this compound: CNC(=O)c1ccc(N2CCC(N3CCCC(c4nc5sc(C)c(C)c5c(=O)[nH]4)C3)CC2)cn1 (single isomer, unassigned) [Compound 199b]
0.1 to 1 µM

Could you please provide reported IC50 for CNC(=O)c1ccc(N2CCC(N3CCC(c4nc5ccc(C(F)(F)F)cc5c(=O)[nH]4)C3)CC2)cn1 (single isomer, unassigned) [Compound 161a] ? Thanks!
0.1 to 1 µM
